runDescription: Mouse Fast PK/BBB (plasma and brain concentration)
Assay type: in vivo, Male C57bl/6j mice
reportedConditions: male, C57bl/6j, plasma, PO 20 mg/kg, 10% PEG400 and 10% Solutol in water, 4 hr, individual animals, read-out: PLASMA Range of Conc.
observedProperty: concentration at 4 h (ng/mL)
Kindly answer with a numeric value in ng/mL, unit omitted.

Req: Entry under review: "O=C(O)c1ccc(S(=O)(=O)N2CCC(Nc3ncnc4ccc(C(c5ccc(Cl)cc5)c5ccc(Cl)cc5)cc34)CC2)cc1" . Reported concentration at 4 h?
Resp: 16.1

----------
system: UniProt:P21554
runDescription: CB-1 in vitro cAMP assay (HTRF)
reportedConditions: mean where tested more than once
pEC50: −log10 of the molar value.
Decide using pEC50: a value greater than or equal to 7 is 1.0, a smaller one is 0.0.

Req: For this molecule, is measured pEC50 7 or higher? "O=C(O)c1cccc(N2CCC(Nc3ncnc4ccc(C(c5ccc(Cl)cc5)c5ccc(Cl)cc5)cc34)CC2)c1"
Resp: 0.0

Req: I'd appreciate it if you could say whether "O=C(CC(F)(F)F)N1CCC(Nc2ncnc3ccc(C(c4ccc(Cl)cc4)c4ccc(Cl)cc4)cc23)CC1" has pEC50 at least equal to 7.
Resp: 1.0

Req: Identify whether the reported pEC50 of the following molecule is 7 or greater: "O=C(NC(CO)(CO)CO)c1ccc(N2CCC(Nc3ncnc4ccc(C(c5ccc(Cl)cc5)c5ccc(Cl)cc5)cc34)CC2)cc1"
Resp: 0.0

Req: Assess whether reported pEC50 for "CS(=O)(=O)Nc1nc(NC2CCN(S(=O)(=O)C(F)(F)F)CC2)c2cc(C(c3ccc(Cl)cc3)c3ccc(Cl)cc3)ccc2n1" sits at 7 or higher.
Resp: 0.0

Req: Could you verify whether the entry "O=C(O)c1ccc(N2CCC(Nc3ncnc4ccc(C(c5ccc(Cl)cc5)c5ccc(Cl)cc5)cc34)CC2)cc1" shows pEC50 of no less than 7?
Resp: 0.0

Req: Textbook exercise: given the entry O=C(O)c1ccc(C(c2ccc(Cl)cc2)c2ccc3ncnc(NC4CCN(S(=O)(=O)C(F)(F)F)CC4)c3c2)cc1 (centres unmarked) , state whether its pEC50 is greater than or equal to 7.
Resp: 0.0

Req: hey, is pEC50 for this one >= 7? N#CC1(c2ccccc2)CCC(Nc2ncnc3ccc(C(c4ccc(Cl)cc4)c4ccc(Cl)cc4)cc23)CC1 (centres unmarked)
Resp: 1.0

Req: Textbook exercise: given the entry "FC(F)(F)CN1CCC(Nc2ncnc3ccc(C(c4ccc(Cl)cc4)c4ccc(Cl)cc4)cc23)CC1" , state whether its pEC50 is greater than or equal to 7.
Resp: 1.0

Req: pEC50 >= 7 for C[C@H](Nc1ncnc2ccc(C(c3ccc(Cl)cc3)c3ccc(Cl)cc3)cc12)c1cccc(C(F)(F)F)c1 (single isomer, unassigned) ?
Resp: 1.0

Req: Please tell me: is the molecule "COC(=O)c1ccc(N2CCC(Nc3ncnc4ccc(C(c5ccc(Cl)cc5)c5ccc(Cl)cc5)cc34)CC2)cc1" at or over 7 in terms of pEC50?
Resp: 1.0

Req: Given "O=C(O)CC(=O)N1CCC(Nc2ncnc3ccc(C(c4ccc(Cl)cc4)c4ccc(Cl)cc4)cc23)CC1" , state whether its pEC50 is at least 7.
Resp: 0.0

----------
system: Human CB1R (Cannabanoid receptor 1) (Homo sapiens (Human), UniProt P21554)
Sequence (P21554 whole entry): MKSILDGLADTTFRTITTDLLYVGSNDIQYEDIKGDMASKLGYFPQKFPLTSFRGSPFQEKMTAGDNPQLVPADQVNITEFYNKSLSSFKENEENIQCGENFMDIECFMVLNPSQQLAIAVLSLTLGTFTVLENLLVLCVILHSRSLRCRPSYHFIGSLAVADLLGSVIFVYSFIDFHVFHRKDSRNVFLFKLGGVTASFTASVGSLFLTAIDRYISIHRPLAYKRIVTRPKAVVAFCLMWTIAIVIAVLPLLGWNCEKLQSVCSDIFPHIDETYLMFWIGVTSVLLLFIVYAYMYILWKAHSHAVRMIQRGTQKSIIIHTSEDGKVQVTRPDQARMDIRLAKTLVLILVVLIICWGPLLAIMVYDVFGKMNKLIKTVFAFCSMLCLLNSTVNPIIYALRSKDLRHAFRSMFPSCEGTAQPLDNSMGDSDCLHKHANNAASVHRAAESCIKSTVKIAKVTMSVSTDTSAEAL
runDescription: CB-1 in vitro cAMP assay (HTRF)
reportedConditions: mean where tested more than once
What pEC50 was measured for each of the following?
Please express pEC50 as -log10 of the molar concentration.

Req: Please give the measured pEC50 for this compound: O=C1CC(Nc2ncnc3ccc(C(c4ccc(Cl)cc4)c4ccc(Cl)cc4)cc23)CCN1c1ccccc1 (stereo not shown) [Compound #102]
Resp: 8.00

Req: Suppose we examine the compound CCS(=O)(=O)N1CCC(Nc2ncnc3ccc(C(c4ccc(Cl)cc4)c4ccc(Cl)cc4)cc23)CC1 [compound 141] ; what pEC50 value has been reported?
Resp: 7.49

Req: So what does the record say about pEC50 for O=C(COc1nc(NCc2cccc(C(F)(F)F)c2)c2cc(C(c3ccc(Cl)cc3)c3ccc(Cl)cc3)ccc2n1)NCCO [Compound #40] ?
Resp: 8.00

Req: What value of measured pEC50 is listed for OC1(c2ccccc2)CCC(Nc2ncnc3ccc(C(c4ccc(Cl)cc4)c4ccc(Cl)cc4)cc23)CC1 (stereo not shown) [Compound #99] ?
Resp: 9.00

----------
system: Human CB1R (Cannabanoid receptor 1) (Homo sapiens (Human))
runDescription: CB-1 in vitro cAMP assay (HTRF)
reportedConditions: mean where tested more than once
Assign pEC50 to each entry below.
Recall that pEC50 is obtained by taking minus log10 of the concentration measured in molar.

Req: pEC50 for "Nc1nc(NC2CCN(S(=O)(=O)C(F)(F)F)CC2)c2cc(C(c3ccc(Cl)cc3)c3ccc(Cl)cc3)ccc2n1" ?
Resp: 7.12

Req: // query pEC50 value for entry "OCCCCOc1nc(NCc2ccc(C(F)(F)F)cc2)c2cc(C(c3ccc(Cl)cc3)c3ccc(Cl)cc3)ccc2n1"
Resp: 7.72

Req: Look at this compound and give its reported pEC50. "CC(=O)NCCOc1nc(NCc2ccc(C(F)(F)F)cc2)c2cc(C(c3ccc(Cl)cc3)c3ccc(Cl)cc3)ccc2n1"
Resp: 7.01

Req: # query: pEC50 of entry "O=C(O)c1cccc(S(=O)(=O)N2CCC(Nc3ncnc4ccc(C(c5ccc(Cl)cc5)c5ccc(Cl)cc5)cc34)CC2)c1"
Resp: 6.97

Req: Fill in: pEC50 of "O=C(NCCO)c1cccc(N2CCC(Nc3ncnc4ccc(C(c5ccc(Cl)cc5)c5ccc(Cl)cc5)cc34)CC2)c1" is ___
Resp: 7.07

Req: Any idea what pEC50 was measured for "O=C(O)c1csc(CN2CCC(Nc3ncnc4ccc(C(c5ccc(Cl)cc5)c5ccc(Cl)cc5)cc34)CC2)c1" ?
Resp: 6.78

Req: Report pEC50 for "FC(F)(F)c1cccc(CNc2ncnc3ccc(C(c4ccc(Cl)cc4)c4ccc(Cl)cc4)cc23)c1" please.
Resp: 8.52

Req: Returns the measured pEC50 for the input compound. Input: "Clc1ccc(C(c2ccc(Cl)cc2)c2ccc3ncnc(NC4CCN(c5ccccn5)CC4)c3c2)cc1"
Resp: 8.70

Req: Sample "O=C(O)c1ccc(S(=O)(=O)N2CCC(Nc3ncnc4ccc(C(c5ccc(Cl)cc5)c5ccc(Cl)cc5)cc34)CC2)cc1" — what was its pEC50?
Resp: 7.85

Req: So what's the measured pEC50 for this one? "COC(=O)c1ccc(CNc2ncnc3ccc(C(c4ccc(Cl)cc4)c4ccc(Cl)cc4)cc23)cc1"
Resp: 7.70

Req: Bench note: what pEC50 did O=S(=O)(N1CCC(Nc2ncnc3ccc(C(c4ccc(Cl)cc4)c4nccs4)cc23)CC1)C(F)(F)F (centres unmarked) show?
Resp: 8.10

Req: // query pEC50 value for entry "COc1nc(NCc2ccc(C(F)(F)F)cc2)c2cc(C(c3ccc(Cl)cc3)c3ccc(Cl)cc3)ccc2n1"
Resp: 8.00

Req: # query: pEC50 of entry "NC(=O)CC(=O)N1CCC(Nc2ncnc3ccc(C(c4ccc(Cl)cc4)c4ccc(Cl)cc4)cc23)CC1"
Resp: 5.54

Req: For the compound shown here, "O=S(=O)(c1ccc(Nc2ncnc3ccc(C(c4ccc(Cl)cc4)c4ccc(Cl)cc4)cc23)cc1)C(F)(F)F" , give the reported pEC50.
Resp: 6.71

----------
system: UniProt P21554
observedProperty: pIC50
pIC50 here: minus log base 10 of the concentration, concentration in moles per litre.

Req: Returns the measured pIC50 for the input compound. Input: CS(=O)(=O)N1CCC(Nc2ncnc3ccc(C(c4ccc(Cl)cc4)c4ccc(Cl)cc4)cc23)CC1 [Compound #140]
Resp: 7.13

----------
system: Human CB2R (Cannabanoid receptor 2) (Homo sapiens (Human), UniProt P34972)
Sequence (P34972 whole entry): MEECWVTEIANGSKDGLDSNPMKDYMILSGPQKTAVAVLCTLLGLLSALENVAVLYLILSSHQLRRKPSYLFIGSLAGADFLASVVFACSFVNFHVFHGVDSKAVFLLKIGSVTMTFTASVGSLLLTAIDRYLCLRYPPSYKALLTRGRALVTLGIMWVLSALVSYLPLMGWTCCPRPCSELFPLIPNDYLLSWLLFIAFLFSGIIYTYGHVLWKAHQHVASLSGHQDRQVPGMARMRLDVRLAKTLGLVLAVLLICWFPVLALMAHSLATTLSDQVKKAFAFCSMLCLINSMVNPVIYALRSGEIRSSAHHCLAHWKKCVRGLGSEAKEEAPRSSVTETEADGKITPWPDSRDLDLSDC
runDescription: CB-2 in vitro cAMP assay (HTRF)
Assay type: cell-based
reportedConditions: mean where tested more than once
# Yes = EC50 below 3 µM (exclusive); No = EC50 at/above 3 µM

Req: Hi there! Is EC50 for COC(=O)CS(=O)(=O)N1CCC(Nc2ncnc3ccc(C(c4ccc(Cl)cc4)c4ccc(Cl)cc4)cc23)CC1 [Compound #110] below 3 µM, do you know?
Resp: No

Req: Please determine if COc1ccc(C(c2ccc(Cl)cc2)c2ccc3ncnc(NC4CCN(c5ccccc5)CC4)c3c2)cc1 (stereo not shown) [Compound #58] is below 3 µM in terms of EC50.
Resp: Yes

Req: Field: below-cutoff. Rule: recorded EC50 strictly less than 3 µM. Subject: O=C(NC(CO)(CO)CO)c1ccc(S(=O)(=O)N2CCC(Nc3ncnc4ccc(C(c5ccc(Cl)cc5)c5ccc(Cl)cc5)cc34)CC2)cc1 [Compound #41]
Resp: Yes

Req: Strictly below 3 µM: is that where EC50 of O=S(=O)(N1CCC(CNc2ncnc3ccc(C(c4ccc(Cl)cc4)c4ccc(Cl)cc4)cc23)CC1)C(F)(F)F [compound 135] sits?
Resp: Yes

Req: Hello, I'm reviewing records and need to know if EC50 of O=C(O)c1ccccc1CN1CCC(Nc2ncnc3ccc(C(c4ccc(Cl)cc4)c4ccc(Cl)cc4)cc23)CC1 [compound 21] is below 3 µM. Could you check?
Resp: No

Req: Does the reported EC50 of the following compound sit strictly below 3 µM? CC(Nc1ncnc2ccc(C(c3ccc(Cl)cc3)c3ccc(Cl)cc3)cc12)c1cccc(C(F)(F)F)c1 (stereo not shown) [compound 128]
Resp: No

Req: Lab log: compare recorded EC50 with 3 µM; is it strictly lower for COC(=O)c1cccc(CNc2ncnc3ccc(C(c4ccc(Cl)cc4)c4ccc(Cl)cc4)cc23)c1 [Compound #62] ?
Resp: No

Hello, the source for this data is patent US9682955B2, in case you need it.
